Data origin, for the record: patent US11542492B2

- target: recombinant human ML-IAPβ (Homo sapiens)
- Sequence (Q96CA5 1-280 isoform Q96CA5-2): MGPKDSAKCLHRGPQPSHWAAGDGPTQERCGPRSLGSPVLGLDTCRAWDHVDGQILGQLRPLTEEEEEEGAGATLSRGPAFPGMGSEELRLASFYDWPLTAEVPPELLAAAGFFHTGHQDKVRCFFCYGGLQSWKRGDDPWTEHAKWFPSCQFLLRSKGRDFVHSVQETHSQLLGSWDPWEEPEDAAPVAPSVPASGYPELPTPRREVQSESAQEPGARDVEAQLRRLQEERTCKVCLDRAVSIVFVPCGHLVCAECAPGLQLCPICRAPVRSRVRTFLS
- protocol.summary: Fluorescence polarization competition binding assay, ML-IAPβ
- experimental.context: ML-IAP, 2 h
observed.property: Ki

Solved entries:
C=CC(=O)Nc1cccc(CNC(=O)[C@@H]2CC[C@@H]3CCCC[C@H](NC(=O)[C@H](C)N(C)C(=O)OC(C)(C)C)C(=O)N32)c1 = > 10000 nM
CN[C@@H](C)C(=O)N[C@H]1CCCC[C@H]2CC[C@@H](C(=O)NCc3cccc(COC(=O)CC(C)=O)c3)N2C1=O = 10 to 100 nM
CN[C@@H](C)C(=O)N[C@H]1CCCC[C@H]2CC[C@@H](C(=O)NCc3cccc(NC(=O)[C@H]4CCC(=O)O4)c3)N2C1=O = 1000 to 10000 nM

// each listed compound needs a value for Ki
1. C=CS(=O)(=O)Nc1cccc(CNC(=O)[C@@H]2CC[C@@H]3CCCC[C@H](NC(=O)[C@H](C)NC)C(=O)N32)c1
2. C=CC(=O)Nc1cccc(CNC(=O)[C@@H]2CC[C@@H]3CCCC[C@H](NC(=O)[C@H](C)NC)C(=O)N32)c1
3. CN[C@@H](C)C(=O)N[C@H]1CCCC[C@H]2CC[C@@H](C(=O)N[C@@H]3CCCc4c(NC(=O)C5CCC(=O)O5)cccc43)N2C1=O (some centres unmarked)

result:
1. 10 to 100 nM
2. 100 to 1000 nM
3. 10 to 100 nM

// each listed compound needs a value for Ki
1. CN[C@@H](C)C(=O)N[C@H]1CCCC[C@H]2CC[C@@H](C(=O)NCc3cccc(C(=O)N4CC5CCC4C(=O)O5)c3)N2C1=O (some centres unmarked)
2. [2H]C([2H])=C([2H])C(=O)Nc1cccc(CNC(=O)[C@@H]2CC[C@@H]3CCCC[C@H](NC(=O)[C@H](C)NC)C(=O)N32)c1

result:
1: > 10000 nM; 2: 100 to 1000 nM
